Test: CCR5-tropic HIV-1 fusion blockers – cell-based, CCR5-tropic Env, dose response (AID 2279)
Conditions: CCR5-tropic HIV-1 Env, reporter read-out; series mostly up to 50 µM
Entries with a potency or affinity are not part of this list. The source made the active and inactive calls. No rule for the calls is given here.
Outcome measure: outcome

>  <Molecule>
CCc1nnc(NS(=O)(=O)c2ccc(NC(=S)NC(=O)/C=C/c3ccc(C(C)C)cc3)cc2)s1

>  <outcome>
inactive

$$$$
>  <Molecule>
O=C(O)c1ccc(Nc2nc(-c3cc4ccccc4oc3=O)cs2)cc1O

>  <outcome>
inactive

$$$$
>  <Molecule>
N#Cc1c(-c2ccccc2)nc(SCc2cccc(C(F)(F)F)c2)[nH]c1=O

>  <outcome>
inactive

$$$$
>  <Molecule>
O=C(Nc1ccc(Br)cc1C(=O)O)c1ccc2c(c1)C(=O)N(Cc1ccccc1)C2=O

>  <outcome>
inactive

$$$$
>  <Molecule>
CCCOc1ccc(C(=O)NNC(=S)NC(=O)c2cc(-c3ccccc3)nc3ccccc23)cc1

>  <outcome>
inactive

$$$$

Record outcome per entry; entries follow.
1. O=C(O)CN1C(=O)/C(=C\c2cccc(OCc3ccc(Cl)cc3Cl)c2)SC1=S
2. O=C(NN1C(=O)/C(=C/c2ccc(O)c([N+](=O)[O-])c2)SC1=S)c1ccccc1Cl
3. O=C1NC(=Nc2ccccc2Cl)S/C1=C\c1cccc([N+](=O)[O-])c1O

Reply:
1. inactive
2. inactive
3. inactive

Go through the list and state outcome for each entry.
1. CC(C)(C)CC(C)(C)c1ccc(OCC(=O)N/N=C/c2ccc(S(=O)(=O)O)o2)cc1
2. O=C(COc1ccc(Cl)cc1)Nc1cc(NC(=O)COc2ccc(Cl)cc2)cc(C(=O)O)c1
3. O=C(NN1C(=O)/C(=C\c2ccc(O)c([N+](=O)[O-])c2)SC1=S)c1ccccc1Cl
4. COc1cccc(C2C3=C(N=c4s/c(=C\c5ccc(OCC(=O)O)cc5)c(=O)n42)c2ccccc2CC3)c1 (centres undefined)
5. O=C(O)c1ccc(N/N=C/c2ccc(-c3cccc(Cl)c3)o2)cc1
6. COc1cc(/C=C2/SC(=S)N(CC(=O)O)C2=O)ccc1OCC(=O)Nc1ccc(C)c(C)c1
7. CCOC(=O)c1sc2nc3c(SCCC(=O)O)cc(C(=O)c4cc(OC)ccc4O)cn3c(=O)c2c1C
8. O=C(O)c1ccc(Cl)c(S(=O)(=O)Nc2ccccc2C(=O)Nc2ccc(Cl)cc2)c1

Reply:
1. inactive
2. inactive
3. inactive
4. inactive
5. inactive
6. inactive
7. inactive
8. inactive

Fill in outcome for each of the 3 molecules listed.
1. COc1cc(/C=C2\C(=N)N3N=C(S(C)(=O)=O)SC3=NC2=O)ccc1OC(=O)c1cccs1
2. CCCCCc1c2c(cc(O)c1C(=O)O)OC(=O)c1c(cc(OC)cc1C(=O)CCCC)O2
3. CCc1ccc(S(=O)(=O)/N=C2\C=C(NS(=O)(=O)c3ccccc3)C(=O)c3ccccc32)cc1

Reply:
inactive
inactive
inactive

* * *

Assay: CCR5-tropic HIV-1 fusion blockers – cell-based, CCR5-tropic Env, dose response (AID 2279)
Settings: CCR5-tropic HIV-1 Env, reporter read-out; series mostly up to 50 µM
Measured potencies and affinities stand elsewhere. The source made the active and inactive calls. The rule behind the calls is not given here.
Outcome measure: outcome

Would you please look over these solved cases?
>  <Molecule>
Cc1cccc(OCC(=O)Nc2ccc(C(=O)Nc3ccccc3C(=O)O)cc2)c1C

>  <outcome>
inactive

$$$$
>  <Molecule>
N#Cc1c(SCC(=O)Nc2nc3ccc(Br)cc3s2)sc2c(O)cc(=O)[nH]c12

>  <outcome>
inactive

$$$$
>  <Molecule>
CCOc1cc(/C=C2\C(=O)N(c3cccc(C(=O)O)c3)N=C2C(F)(F)F)ccc1OCC(=O)Nc1ccccc1OC

>  <outcome>
inactive

$$$$
>  <Molecule>
COc1ccc(O)c(C(=O)c2cc(SCC(=O)O)c3nc4sc5c(c4c(=O)n3c2)CCCC5)c1

>  <outcome>
inactive

$$$$
>  <Molecule>
COc1ccc(C(=O)Nc2ccc(/C(C)=N/NC(=O)c3ccncc3)cc2)cc1

>  <outcome>
inactive

$$$$
>  <Molecule>
O=[N+]([O-])c1cc(Cl)cc(/C=N/NC(=S)Nc2ccc(S(=O)(=O)N3CCOCC3)cc2)c1O

>  <outcome>
inactive

$$$$
>  <Molecule>
CCc1oc2ccccc2c1C(=O)c1cc(Br)c(O)c(Br)c1

>  <outcome>
inactive

$$$$
>  <Molecule>
CCS(=O)(=O)C1=NSC2=NC(=O)/C(=C\c3ccc(OS(=O)(=O)c4ccccc4)c(OC)c3)C(=N)N21

>  <outcome>
inactive

$$$$
>  <Molecule>
Cc1c(Cl)cccc1NS(=O)(=O)c1ccc2c(c1)C1C=CCC1C(c1ccc(C(=O)O)cc1)N2 (centres undefined)

>  <outcome>
inactive

$$$$
>  <Molecule>
O=C(COc1ccc2ccccc2c1)Nc1cccc(C(=O)Nc2ccccc2C(=O)O)c1

>  <outcome>
inactive

$$$$

Batch request: outcome for each of the following molecules.
1. Cc1ccc(S(=O)(=O)Oc2ccc(/C=C3\C(=N)N4N=C(S(C)(=O)=O)SC4=NC3=O)cc2)cc1
2. O=C(N/N=C/c1cc(Cl)cc([N+](=O)[O-])c1O)c1ccccc1NS(=O)(=O)c1cccs1
3. Cc1cn2c(N)c(C=C3C=C(Cl)C(=O)C(Cl)=C3)c(=O)nc2s1
4. CC(c1ccccc1)N1C(=O)c2ccc(C(=O)Nc3ccc(Br)cc3C(=O)O)cc2C1=O (centres undefined)
5. CCCCCC#CCC#CCC#CCC#CCCCC(=O)O
6. O=C1NN(c2ccc(Cl)c(Cl)c2)C(=O)/C1=C/c1ccc(-c2ccccc2C(=O)O)o1
7. CCc1ccc(N=C2NC(=O)/C(=C/c3cc(Br)c(OCC(=O)O)c(OC)c3)S2)cc1

Reply:
["inactive", "inactive", "inactive", "inactive", "inactive", "inactive", "inactive"]

The following molecules each have a reported value; give each one's outcome.
1. O=C(O)CN1C(=O)/C(=C\c2cccc(OCc3ccc(Cl)cc3)c2)SC1=S
2. O=C1N=c2ccc(Br)cc2=C1c1sc(=S)n(NS(=O)(=O)c2ccccc2)c1O

Reply:
1: inactive; 2: inactive
